MEASURED_ON: UniProt:P13569
Sequence (P13569 with tags, fused parts or gaps DEL508-508): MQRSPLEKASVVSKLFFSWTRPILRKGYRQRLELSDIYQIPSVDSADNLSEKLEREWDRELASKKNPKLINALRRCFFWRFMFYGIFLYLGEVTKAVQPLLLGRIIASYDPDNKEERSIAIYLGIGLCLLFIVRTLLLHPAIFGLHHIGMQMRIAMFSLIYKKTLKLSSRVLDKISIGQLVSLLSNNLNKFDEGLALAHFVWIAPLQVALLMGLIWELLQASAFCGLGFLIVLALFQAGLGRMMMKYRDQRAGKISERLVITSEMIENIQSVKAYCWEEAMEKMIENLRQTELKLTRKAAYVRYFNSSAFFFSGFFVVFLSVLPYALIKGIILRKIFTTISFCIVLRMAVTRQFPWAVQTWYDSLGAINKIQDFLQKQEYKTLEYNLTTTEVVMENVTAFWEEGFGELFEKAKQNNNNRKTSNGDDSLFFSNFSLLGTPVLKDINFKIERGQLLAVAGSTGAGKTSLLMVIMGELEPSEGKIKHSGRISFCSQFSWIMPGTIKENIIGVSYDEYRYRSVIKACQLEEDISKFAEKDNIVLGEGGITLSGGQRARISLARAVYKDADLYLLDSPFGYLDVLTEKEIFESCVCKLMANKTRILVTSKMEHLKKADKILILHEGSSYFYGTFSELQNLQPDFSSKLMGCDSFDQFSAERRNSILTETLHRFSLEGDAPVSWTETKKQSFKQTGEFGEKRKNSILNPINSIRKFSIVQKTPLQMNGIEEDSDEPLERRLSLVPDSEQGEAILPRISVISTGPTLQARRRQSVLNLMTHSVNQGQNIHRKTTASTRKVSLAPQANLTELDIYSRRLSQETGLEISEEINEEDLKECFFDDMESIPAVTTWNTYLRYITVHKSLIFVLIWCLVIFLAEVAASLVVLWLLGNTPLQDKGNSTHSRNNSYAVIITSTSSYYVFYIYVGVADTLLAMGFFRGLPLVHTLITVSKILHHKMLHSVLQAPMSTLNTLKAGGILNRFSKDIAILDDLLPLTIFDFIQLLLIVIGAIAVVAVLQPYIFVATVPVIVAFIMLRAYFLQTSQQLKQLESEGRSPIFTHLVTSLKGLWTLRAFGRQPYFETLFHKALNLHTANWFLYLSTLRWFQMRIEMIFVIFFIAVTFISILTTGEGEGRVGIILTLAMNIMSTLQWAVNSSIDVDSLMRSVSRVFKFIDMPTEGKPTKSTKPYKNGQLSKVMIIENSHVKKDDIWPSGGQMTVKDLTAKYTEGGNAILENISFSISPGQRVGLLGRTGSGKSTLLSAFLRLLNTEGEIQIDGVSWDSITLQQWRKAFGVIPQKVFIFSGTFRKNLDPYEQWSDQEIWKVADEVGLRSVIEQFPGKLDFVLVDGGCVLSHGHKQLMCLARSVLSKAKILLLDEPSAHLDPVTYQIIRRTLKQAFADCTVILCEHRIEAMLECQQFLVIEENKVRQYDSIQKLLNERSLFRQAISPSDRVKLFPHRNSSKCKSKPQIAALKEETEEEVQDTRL
TEST_SUMMARY: Membrane Potential Dye, Enteroid Assay B
Format: cell-based
Protocol: Base medium (ADF+++) consisted of Advanced DMEM/Ham's F12, 2 mM Glutamax, 10 mM HEPES, 1 µg/mL penicillin/streptomycin. […] Enteroid cells were incubated with test compound in IEMM for 18-24 hours at 37° C., 95% humidity and 5% CO2. […] Chloride transport was initiated by addition of Chloride Free Dye Stimulation Solution and the fluorescence signal was read for 15 min. […]
METRIC_NAME: Ent. B Max Activity

MOLECULE	VALUE
COC(=O)NC1CC2(C1)CC(N1C(=O)c3cccc(c3)S(=O)(=O)Nc3nc(c(C)c(-c4c(C)cccc4C)n3)OC[C@H]1CC(C)C)C2 (stereo in doubt) [Compound 68]	+++ (+++ is >60%)
Cc1cccc(C)c1-c1nc2nc(c1C)OC[C@@H](CC(C)(C)C)NC(=O)c1cccc(c1)S(=O)(=O)N2	+++ (+++ is >60%)
Cc1cccc(C)c1-c1nc2nc(c1C)OC[C@@H](CC(C)(C)C)N(C1CC3(CC(N(C)C)C3)C1)C(=O)c1cccc(c1)S(=O)(=O)N2 (stereo partly drawn) [Compound 95]	+++ (+++ is >60%)
